- PROCEDURE_TEXT: The drug is tested on Bacteroides finegoldii strain: DSM17565 for biotransformation. The drug concentrations were measured before and after a 12-h incubation by liquid-chromatography-coupled mass spectrometry (LC–MS)
- PROTOCOL_CONDITIONS: 2 µM

MOLECULE	Bacterial Biotransformation
C=CCc1ccccc1OCC(O)CNC(C)C (centres undefined)	Compound NOT metabolized
C[C@@H](c1ncncc1F)[C@](O)(Cn1cncn1)c1ccc(F)cc1F	Compound NOT metabolized
CC12CC3CC(C)(C1)CC(N)(C3)C2 [MEMANTINE]	Compound NOT metabolized
CCOC(=O)[C@H](CCc1ccccc1)N[C@H]1CCc2ccccc2N(CC(=O)O)C1=O	Compound metabolized
COc1ccccc1N1CCN(CC(O)COc2cccc3ccccc23)CC1 (centres undefined)	Compound NOT metabolized
O=C(NCc1ccccc1)OCCO [BURAMATE]	Compound NOT metabolized
CCOC(=O)[C@H](CCc1ccccc1)N[C@@H](C)C(=O)N1[C@H](C(=O)O)C[C@H]2CCCC[C@@H]21	Compound NOT metabolized
N[C@@H](Cc1ccc(N(CCCl)CCCl)cc1)C(=O)O	Compound metabolized
CC(C)(C)NC(=O)[C@H]1CC[C@H]2[C@@H]3CC[C@H]4NC(=O)C=C[C@]4(C)[C@H]3CC[C@]12C [FINASTERIDE]	Compound metabolized

Source listed as ChEMBL document CHEMBL5303573.
